Exercise: state measured combination Emax for each of the molecules provided.
- Tested on: KYSE-220 (Esophageal Squamous Cell Carcinoma)
- EXPERIMENT SUMMARY: combination Emax (second highest fraction inhibited in the dose matrix, 72 h); higher = more inhibition; extreme values may be limits of the assay
Give bare numbers.

INSERT INTO results (molecule, endpoint_result) VALUES
  ('C[C@@H](c1ccc2nccn2c1)n1nnc2ncc(-c3cnn(C)c3)nc21 [Savolitinib] + Cc1c2c(nn1C)CSCc1cc(n(C)n1)CSc1cc(c3ccccc3c1)OCCCc1c(C(=O)O)n(C)c3c-2c(Cl)ccc13 [AZD5991] (first compound max 1 µM, 7x7, partner max 1 µM)', 0.164),
  ('CC1(C)CCC(CN2CCN(c3ccc(C(=O)NS(=O)(=O)c4ccc(NCC5CCOCC5)c([N+](=O)[O-])c4)c(Oc4cnc5[nH]ccc5c4)c3)CC2)=C(c2ccc(Cl)cc2)C1 [Venetoclax] + C[C@@H]1COCCN1C2=NC(=NC(=C2)C3(CC3)[S@](=N)(=O)C)C4=C5C=CNC5=NC=C4 [AZD6738] (first compound max 1 µM, 7x7, partner max 10 µM)', 0.875);

Proceed to the following item.
Problem: Lab request: please report combination Emax under test system KYSE-220 (Esophageal Squamous Cell Carcinoma) for Cn1cnc2c(F)c(Nc3ccc(Br)cc3Cl)c(C(=O)NOCCO)cc21 [Selumetinib] + C[C@@H]1COCCN1C2=NC(=NC(=C2)C3(CC3)[S@](=N)(=O)C)C4=C5C=CNC5=NC=C4 [AZD6738] (first compound max 10 µM, 7x7, partner max 10 µM)
Result: 0.753
